- System: U-2932
- method.description: growth inhibition by drug plus 177Lu-lilotomab satetraxetan (1 - RLU/untreated control) (fraction); higher = stronger inhibition
- conditions: 1000 nM; time (day): 5; 177Lu-lilotomab satetraxetan 1 ug/ml
Threshold rule: growth inhibition by drug plus 177Lu-lilotomab satetraxetan greater than or equal to 0.1 is Satisfied; below that, Not satisfied.

For orientation, consider the following solved cases.
{"compound": "C#Cc1cccc(Nc2ncnc3cc(OC)c(OCCCCCCC(=O)NO)cc23)c1", "class.assignment": "Satisfied"}
{"compound": "COc1cc(OC2CCN(C)CC2)ccc1Nc1ncc2c(n1)n(C1CCCC1)c(=O)n2C", "class.assignment": "Not satisfied"}
{"compound": "Cc1ccc(-c2csc3ncnc(SCCC(=O)O)c23)cc1", "class.assignment": "Not satisfied"}

Inquiry: Decide: growth inhibition by drug plus 177Lu-lilotomab satetraxetan of `O=C(Nc1cccc(Cl)c1)Nc1ncc(CCNc2ncnc3ccsc23)s1` >= 0.1?
Reply text: Satisfied

Inquiry: And the next one, CNC(=O)[C@@H](NC(=O)[C@H](CC(C)C)[C@H](O)C(=O)NO)C(C)(C)C [Marimastat] ?
Reply text: Not satisfied

====

Measured growth inhibition by drug plus 177Lu-lilotomab satetraxetan, listed per entry for reference.
- System: RIVA
- method.description: growth inhibition by drug plus 177Lu-lilotomab satetraxetan (1 - RLU/untreated control) (fraction); higher = stronger inhibition
- conditions: 10 nM; time (day): 3; 177Lu-lilotomab satetraxetan 0.5 ug/ml
Give the value as a plain number.

Would you please look over these solved cases?
{"compound": "COC(=O)Nc1ccc(-c2nc(N3CCOCC3)c3cnn(C4CCN(C(=O)OC)CC4)c3n2)cc1", "measured.on": "RIVA", "value.reported": 0.624}
{"compound": "Nc1nc(OCc2cc(Br)cs2)c2[nH]cnc2n1", "measured.on": "RIVA", "value.reported": 0.437}
{"compound": "CNC(=O)c1cc(COc2nnc(Nc3ccc(Cl)cc3)c3ccoc23)ccn1", "measured.on": "RIVA", "value.reported": 0.351}
{"compound": "CO[C@H]1C[C@@H]2CC[C@@H](C)[C@@](O)(O2)C(=O)C(=O)N2CCCC[C@H]2C(=O)O[C@H]([C@H](C)C[C@@H]2CC[C@@H](O)[C@H](OC)C2)CC(=O)[C@H](C)/C=C(\\C)[C@@H](O)[C@@H](OC)C(=O)[C@H](C)C[C@H](C)/C=C/C=C/C=C/1C [Rapamycin (Sirolimus)]", "measured.on": "RIVA", "value.reported": 0.839}
{"compound": "c1ccc(-c2nn3c(c2-c2ccnc4cc(OCCN5CCOCC5)ccc24)CCC3)nc1", "measured.on": "RIVA", "value.reported": 0.46}

Inquiry: Notebook: pull reported growth inhibition by drug plus 177Lu-lilotomab satetraxetan for RIVA, entry CC1=C(/C=C/C(C)=C/C=C/C(C)=C/C(=O)Nc2ccc(O)cc2)C(C)(C)CCC1 [Fenretinide]
Reply text: 0.515

Inquiry: And the next one, `N#CCNC(=O)c1ccc(-c2ccnc(Nc3ccc(N4CCOCC4)cc3)n2)cc1` ?
Reply text: 0.481

Inquiry: And the next one, `Cc1ccc(NC(=O)c2ccc(CN3CC[C@H](N(C)C)C3)c(C(F)(F)F)c2)cc1Nc1nccc(-c2cncnc2)n1` ?
Reply text: 0.594

Inquiry: And the next one, `Cc1ccc(-c2csc3ncnc(SCCC(=O)O)c23)cc1` ?
Reply text: 0.458

Inquiry: And the next one, `O=c1[nH]cc(F)c(=O)[nH]1` ?
Reply text: 0.421

Inquiry: And the next one, `CC(C)(C)c1[nH]cnc1/C=c1\[nH]c(=O)/c(=C/c2ccccc2)[nH]c1=O` ?
Reply text: 0.505

Inquiry: And the next one, `C[C@@H](Oc1cc(-c2cnn(C3CCNCC3)c2)cnc1N)c1c(Cl)ccc(F)c1Cl` ?
Reply text: 0.466

Inquiry: And the next one, `C[C@]12CC[C@@H]3c4ccc(O)cc4CC[C@H]3[C@@H]1CCC2=O` ?
Reply text: 0.474

Inquiry: And the next one, `CCC(=O)N1CCN(c2ccc(-n3c(=O)ccc4cnc5ccc(-c6cnc7ccccc7c6)cc5c43)cc2C(F)(F)F)CC1` ?
Reply text: 0.556

Inquiry: And the next one, `C=C1/C(=C\C=C2/CCC[C@]3(C)[C@@H]([C@H](C)/C=C/[C@H](C)C(C)C)CC[C@@H]23)C[C@@H](O)C[C@@H]1O` ?
Reply text: 0.484
